# protocol.description: Aqueous solubility of the compound
# Assay type: physicochemical
# test.conditions: buffer
parameter.measured: solubility
Answer format: number, then unit.

Recorded solubility of `N#Cc1ccc(O[C@H]2CN(S(=O)(=O)c3ccc(C(F)(F)F)cc3C#N)C[C@@]2(O)CO)cc1F` , please.
90 µM

What do you get for `N#Cc1ccc(O[C@H]2CN(S(=O)(=O)c3ccc(Cl)cc3Cl)C[C@@]2(O)CO)cc1F` ?
360 µM

Continue with the next molecule.
Recorded solubility of `N#Cc1ccc(OCC2(O)CCN(S(=O)(=O)c3ccc(Cl)cc3Cl)CC2)cc1F` , please.
7.5 µM

----------
# protocol.description: Fraction unbound in Sprague-Dawley rat plasma
# Format: ADME, cell-free
parameter.measured: fraction unbound
Answers are plain numbers.

Examples with their reported fraction unbound follow.
Recorded fraction unbound of `N#Cc1ccc(O[C@H]2CN(S(=O)(=O)c3ccc(Cl)cc3Cl)C[C@@]2(O)CO)cc1F` , please.
0.059

What do you get for `N#Cc1ccc(OCC2(O)CCN(S(=O)(=O)c3ccc(Cl)cc3Cl)CC2)cc1F` ?
0.013

Continue with the next compound.
Recorded fraction unbound of `N#Cc1ccc(O[C@H]2CN(S(=O)(=O)c3ccc(C(F)(F)F)cc3C#N)C[C@@]2(O)CO)cc1F` , please.
0.049

----------
# target.entity: Short transient receptor potential channel 6 (Homo sapiens, UniProt Q9Y210)
# Sequence (Q9Y210 whole entry): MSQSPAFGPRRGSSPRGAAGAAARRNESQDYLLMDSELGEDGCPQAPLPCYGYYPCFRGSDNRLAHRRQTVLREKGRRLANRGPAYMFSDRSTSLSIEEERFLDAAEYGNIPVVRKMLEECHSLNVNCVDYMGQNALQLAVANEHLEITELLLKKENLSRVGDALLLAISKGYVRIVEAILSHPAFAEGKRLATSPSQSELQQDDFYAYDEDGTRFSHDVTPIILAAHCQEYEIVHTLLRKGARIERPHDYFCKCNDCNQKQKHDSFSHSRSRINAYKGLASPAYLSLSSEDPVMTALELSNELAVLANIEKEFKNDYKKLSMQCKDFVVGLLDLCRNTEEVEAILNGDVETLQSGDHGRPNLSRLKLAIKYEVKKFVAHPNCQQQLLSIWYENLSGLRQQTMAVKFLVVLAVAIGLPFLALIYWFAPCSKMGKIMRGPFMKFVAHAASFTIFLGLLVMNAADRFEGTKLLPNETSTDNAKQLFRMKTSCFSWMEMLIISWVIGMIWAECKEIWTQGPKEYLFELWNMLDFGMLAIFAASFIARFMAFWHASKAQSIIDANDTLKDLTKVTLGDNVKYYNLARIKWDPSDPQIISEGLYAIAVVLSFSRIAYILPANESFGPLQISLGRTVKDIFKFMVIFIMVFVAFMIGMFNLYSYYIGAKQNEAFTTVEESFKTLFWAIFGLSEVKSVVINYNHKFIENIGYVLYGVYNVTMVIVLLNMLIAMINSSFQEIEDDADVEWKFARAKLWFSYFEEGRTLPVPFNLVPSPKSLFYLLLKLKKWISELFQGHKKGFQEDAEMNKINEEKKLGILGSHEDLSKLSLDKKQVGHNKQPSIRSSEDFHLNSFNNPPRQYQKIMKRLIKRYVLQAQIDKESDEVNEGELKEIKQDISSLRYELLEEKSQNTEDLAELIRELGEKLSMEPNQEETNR
pIC50: −log10 of the molar value.
parameter.measured: pIC50

Recorded pIC50 of `N#Cc1ccc(O[C@H]2CN(S(=O)(=O)c3ccc(Cl)cc3Cl)C[C@@]2(O)CO)cc1F` , please.
< 5.00

----------
Give measured MRT for each item. Keep answers brief.
# protocol.description: MRT in iv dosed Sprague-Dawley rat
# Assay type: ADME, organism-based
# test.conditions: in vivo
Answer format: number, then unit.

Examples with their reported MRT follow.
Recorded MRT of `N#Cc1ccc(O[C@H]2CN(S(=O)(=O)c3ccc(Cl)cc3Cl)C[C@@]2(O)CO)cc1F` , please.
54 min

What do you get for `N#Cc1ccc(OCC2(O)CCN(S(=O)(=O)c3ccc(Cl)cc3Cl)CC2)cc1F` ?
90 min

Continue with the next molecule.
Recorded MRT of `N#Cc1ccc(O[C@H]2CN(S(=O)(=O)c3ccc(C(F)(F)F)cc3C#N)C[C@@]2(O)CO)cc1F` , please.
48 min

----------
# target.entity: UniProt Q9HBA0
# protocol.description: Antagonist activity at human TRPV4 expressed in BHK/AC9 or HEK MSR2 cells assessed as inhibition of GSK634775-induced Ca2+ flux pre-incubated for 10 mins before agonist addition by FLIPR assay
Give measured IC50 for each item. Keep answers brief.
One number for each entry, in nM.

What value of IC50 on UniProt Q9HBA0 does N#Cc1ccc(OC[C@H]2CN(S(=O)(=O)c3ccc(Cl)cc3Cl)C[C@H]2O)cc1F (racemic) have?
1500

Dear colleague, could you please provide IC50 for the compounds listed below?
1. N#Cc1ccc(OC[C@@]2(O)CN(S(=O)(=O)c3ccc(Cl)cc3Cl)C[C@@H]2O)cc1F (racemic)
2. N#Cc1ccc(O[C@H]2CN(S(=O)(=O)c3ccc(Cl)cc3Cl)C[C@H]2O)cc1F (racemic)
3. N#Cc1ccc(O[C@H]2CN(S(=O)(=O)c3ccc(Cl)cc3Cl)C[C@@]2(O)CO)cc1F (racemic)
4. N#Cc1ccc(OCC2CCN(S(=O)(=O)c3ccc(Cl)cc3Cl)CC2)cc1F
5. N#Cc1ccc(O[C@H]2CN(S(=O)(=O)c3ccc(Cl)cc3Cl)C[C@@H]2O)cc1F (racemic)

150
100
4
6300
40

Dear colleague, could you please provide IC50 for the compounds listed below?
1. N#Cc1ccc(O[C@H]2CN(S(=O)(=O)c3ccc(Cl)cc3Cl)C[C@@]2(O)CO)cc1F
2. N#Cc1ccc(O[C@H]2CN(S(=O)(=O)c3ccc(Cl)cc3Cl)C[C@]2(O)CO)cc1F (racemic)

1. 2.5
2. 100

----------
# target.entity: Transient receptor potential cation channel subfamily V member 4 (Homo sapiens, UniProt Q9HBA0)
# Sequence (Q9HBA0 whole entry): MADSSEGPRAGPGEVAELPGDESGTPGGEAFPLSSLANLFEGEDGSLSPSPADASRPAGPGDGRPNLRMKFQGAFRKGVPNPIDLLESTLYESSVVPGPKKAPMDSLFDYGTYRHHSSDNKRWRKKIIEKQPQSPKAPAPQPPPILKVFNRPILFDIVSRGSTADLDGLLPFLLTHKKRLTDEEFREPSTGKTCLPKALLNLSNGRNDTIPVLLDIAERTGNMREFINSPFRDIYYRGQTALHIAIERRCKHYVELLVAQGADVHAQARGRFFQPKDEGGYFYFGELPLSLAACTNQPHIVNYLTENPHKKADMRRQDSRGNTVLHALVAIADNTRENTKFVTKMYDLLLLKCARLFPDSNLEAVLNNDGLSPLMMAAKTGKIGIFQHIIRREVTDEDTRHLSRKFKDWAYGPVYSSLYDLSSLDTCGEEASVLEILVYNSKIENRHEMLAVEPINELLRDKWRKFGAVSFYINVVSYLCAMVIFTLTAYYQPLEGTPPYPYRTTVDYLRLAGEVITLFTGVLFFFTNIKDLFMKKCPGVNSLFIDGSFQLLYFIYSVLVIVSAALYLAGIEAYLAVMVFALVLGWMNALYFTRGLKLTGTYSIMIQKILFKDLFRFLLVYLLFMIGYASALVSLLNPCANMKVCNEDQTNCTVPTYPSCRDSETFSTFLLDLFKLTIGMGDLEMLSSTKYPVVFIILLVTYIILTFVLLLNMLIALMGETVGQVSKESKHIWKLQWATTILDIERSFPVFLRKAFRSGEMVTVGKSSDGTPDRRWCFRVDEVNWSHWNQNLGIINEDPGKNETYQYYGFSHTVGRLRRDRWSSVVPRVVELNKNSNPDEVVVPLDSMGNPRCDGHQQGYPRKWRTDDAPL
# protocol.description: Antagonist activity at human TRPV4 expressed in BHK/AC9 or HEK MSR2 cells assessed as inhibition of GSK634775-induced Ca2+ flux pre-incubated for 10 mins before agonist addition by FLIPR assay
parameter.measured: pIC50
Numbers only, as −log10 of the molar value.

Recorded pIC50 of N#Cc1ccc(OC2CCN(S(=O)(=O)c3ccc(Cl)cc3Cl)C2)cc1F (racemic) , please.
6.49

What do you get for N#Cc1ccc(O[C@H]2CN(S(=O)(=O)c3ccc(Cl)cc3Cl)C[C@H]2CO)cc1F (racemic) ?
7.30

What do you get for N#Cc1ccc(OCC2(O)CCN(S(=O)(=O)c3ccc(Cl)cc3Cl)C2)cc1F (racemic) ?
6.82

What do you get for `N#Cc1ccc(OCC2(O)CN(S(=O)(=O)c3ccc(Cl)cc3Cl)C2)cc1F` ?
7.30

Continue with the next compound.
Recorded pIC50 of N#Cc1ccc(O[C@H]2CN(S(=O)(=O)c3ccc(Cl)cc3Cl)C[C@@H]2CO)cc1F (racemic) , please.
6.70

----------
# target.entity: UniProt:Q8NER1
# Sequence (Q8NER1 whole entry): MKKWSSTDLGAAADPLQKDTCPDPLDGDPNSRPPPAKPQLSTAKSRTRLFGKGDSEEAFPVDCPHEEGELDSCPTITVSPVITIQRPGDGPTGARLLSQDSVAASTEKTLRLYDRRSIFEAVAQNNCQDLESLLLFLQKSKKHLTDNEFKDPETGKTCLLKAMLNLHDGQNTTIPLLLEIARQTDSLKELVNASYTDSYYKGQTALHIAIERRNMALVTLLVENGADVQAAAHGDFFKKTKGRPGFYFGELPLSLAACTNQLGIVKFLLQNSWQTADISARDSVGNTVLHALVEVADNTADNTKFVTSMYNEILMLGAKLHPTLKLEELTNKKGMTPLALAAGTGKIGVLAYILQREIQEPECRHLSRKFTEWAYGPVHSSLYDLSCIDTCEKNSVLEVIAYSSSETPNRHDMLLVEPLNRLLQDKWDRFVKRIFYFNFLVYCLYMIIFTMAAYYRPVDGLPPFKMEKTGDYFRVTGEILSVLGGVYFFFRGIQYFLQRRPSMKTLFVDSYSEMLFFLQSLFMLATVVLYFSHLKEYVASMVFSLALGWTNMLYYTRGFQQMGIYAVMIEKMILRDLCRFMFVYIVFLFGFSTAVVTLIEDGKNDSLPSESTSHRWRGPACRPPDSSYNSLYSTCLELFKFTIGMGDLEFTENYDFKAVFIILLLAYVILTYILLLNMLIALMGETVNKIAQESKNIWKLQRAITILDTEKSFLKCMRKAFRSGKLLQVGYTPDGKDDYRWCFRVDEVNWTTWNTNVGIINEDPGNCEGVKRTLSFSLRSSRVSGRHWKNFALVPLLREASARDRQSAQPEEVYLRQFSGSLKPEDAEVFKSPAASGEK
parameter.measured: IC50

What value of IC50 on UniProt:Q8NER1 does `N#Cc1ccc(O[C@H]2CN(S(=O)(=O)c3ccc(Cl)cc3Cl)C[C@@]2(O)CO)cc1F` have?
> 10 µM
